Task for the reader: assign each of the following binders its reported pKd.
assayed.system: T1, rat DLL4 extracellular domain (rat, UniProt D3ZHH1 28-530)
T1 construct: extracellular domain; also called ratDLL4 ECD
T1 sequence (D3ZHH1 28-530): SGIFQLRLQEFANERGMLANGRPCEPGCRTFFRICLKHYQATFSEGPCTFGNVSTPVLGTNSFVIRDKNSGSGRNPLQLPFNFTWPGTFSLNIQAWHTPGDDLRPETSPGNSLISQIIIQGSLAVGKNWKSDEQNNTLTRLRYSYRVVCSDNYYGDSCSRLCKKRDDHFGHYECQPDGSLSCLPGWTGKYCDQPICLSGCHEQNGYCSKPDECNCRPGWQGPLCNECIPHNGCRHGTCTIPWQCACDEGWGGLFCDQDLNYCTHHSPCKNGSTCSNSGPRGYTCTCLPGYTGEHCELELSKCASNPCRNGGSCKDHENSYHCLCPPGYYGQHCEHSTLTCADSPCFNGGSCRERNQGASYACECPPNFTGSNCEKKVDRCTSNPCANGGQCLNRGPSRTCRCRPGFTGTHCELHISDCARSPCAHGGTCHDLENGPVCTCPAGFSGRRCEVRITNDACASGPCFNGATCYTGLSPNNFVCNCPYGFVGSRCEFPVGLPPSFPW
assay.explanation: SPR (Biacore)
Answers are plain numbers, as −log10 of the molar value.

h1A11.E12 (antibody, V domains shown, also called h1A11.E12 VH / h1A11.E12 VL) VH: EVQLVESGGGLVQPGGSLRLSCAASGFTFRYFPMAWVRQAPGKGLEWVATISGSDEWPNYRDSVKGRFTISRDNAKNSLYLQMNSLRAEDTAVYYCARGYYNSPFAFWGQGTLVTVSS VL: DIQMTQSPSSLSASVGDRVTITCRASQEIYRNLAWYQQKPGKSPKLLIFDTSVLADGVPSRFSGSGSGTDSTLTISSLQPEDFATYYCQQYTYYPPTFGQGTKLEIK: 8.80
h1A11.A6 (antibody, V domains shown, also called h1A11.A6 VH / h1A11VL.1) VH: EVQLVESGGGLVQPGGSLRLSCAASGFTFRHFPMAWVRQAPGKGLEWVATISSSDAWPSYRDSVKGRFTISRDNAKNSLYLQMNSLRAEDTAVYYCSRGYYNSPFAYWGQGTLVTVSS VL: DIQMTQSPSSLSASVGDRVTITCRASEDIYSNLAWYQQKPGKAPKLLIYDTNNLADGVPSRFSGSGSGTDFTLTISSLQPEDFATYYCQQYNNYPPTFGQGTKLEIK: 8.22
h1A11.G3 (antibody, V domains shown, also called h1A11.G3 VH / h1A11.E12 VL) VH: EVQLVESGGGLVQPGGSLRLSCAASGFTFRYFPMSWVRQAPGKGLEWVASISGSDGWASYRDSVKGRFTISRDNAKNSLYLQMNSLRAEDTAVYYCARGYYNSPFAYWGQGTLVTVSS VL: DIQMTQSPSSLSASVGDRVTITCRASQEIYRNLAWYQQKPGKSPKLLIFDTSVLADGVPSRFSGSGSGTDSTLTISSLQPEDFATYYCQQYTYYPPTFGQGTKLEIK: 8.07

Q: Name the reported pKd value associated with the binder h1A11.A11 (antibody, V domains shown, also called h1A11.A11 VH / h1A11VL.1) VH: EVQLVESGGGLVQPGGSLRLSCAASGFTFRHFPMAWVRQAPGKGLEWVATISSSDDWPNYRDSVKGRFTISRDNAKSSLYLQMNSLRAEDTAVYYCSRGYYNSPFAYWGQGTLVTVSS VL: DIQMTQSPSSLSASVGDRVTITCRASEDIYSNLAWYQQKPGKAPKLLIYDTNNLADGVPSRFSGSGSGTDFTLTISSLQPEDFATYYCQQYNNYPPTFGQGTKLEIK
Result: 8.06
